species: Rattus norvegicus; assay: Open TG-GATES - Regimen: Single; type: toxicity, organism-based, Sprague-Dawley; design: regimen Single, gender Male, age 6 weeks; settings: in vivo, po, 100 mg/kg, 9 h, tissue Liver, route gavage, dose level Low

molecule	result.unit	LIVER
CCOC(=O)CCC(=O)O[C@H]1[C@H](O[C@@H]2[C@@H](C)[C@H](O[C@H]3C[C@@](C)(OC)[C@@H](O)[C@H](C)O3)[C@@H](C)C(=O)O[C@H](CC)[C@@](C)(O)[C@H](O)[C@@H](C)C(=O)[C@H](C)C[C@@]2(C)O)O[C@H](C)C[C@@H]1N(C)C [ERYTHROMYCIN ETHYLSUCCINATE]	g	9.2
COc1ccc2[nH]c([S+]([O-])Cc3ncc(C)c(OC)c3C)nc2c1 (centres undefined) [OMEPRAZOLE]	g	9.7
COC1=CC(=O)C[C@@H](C)[C@]12Oc1c(Cl)c(OC)cc(OC)c1C2=O [GRISEOFULVIN]	g	8.6
NC(N)=Nc1nc(CSCCC(N)=NS(N)(=O)=O)cs1 [FAMOTIDINE]	g	9

====

organism: Rattus norvegicus; test: Open TG-GATES - Regimen: Daily Repeat; format: toxicity, organism-based, Sprague-Dawley; design: regimen Daily Repeat, gender Male, age 6 weeks; settings: in vivo, po, 100 mg/kg, 72 h, tissue Plasma, route gavage, dose level Low, time 3 day

compound	result.unit	RALB
COc1ccc2[nH]c([S+]([O-])Cc3ncc(C)c(OC)c3C)nc2c1 (stereo not given)	g/dL	3.4
NC(N)=Nc1nc(CSCCC(N)=NS(N)(=O)=O)cs1	g/dL	3.3
CCOc1ccc(NC(=O)CC(C)O)cc1 (stereo not given)	g/dL	2.7
CCOC(=O)CCC(=O)O[C@H]1[C@H](O[C@@H]2[C@@H](C)[C@H](O[C@H]3C[C@@](C)(OC)[C@@H](O)[C@H](C)O3)[C@@H](C)C(=O)O[C@H](CC)[C@@](C)(O)[C@H](O)[C@@H](C)C(=O)[C@H](C)C[C@@]2(C)O)O[C@H](C)C[C@@H]1N(C)C [ERYTHROMYCIN ETHYLSUCCINATE]	g/dL	3
COC1=CC(=O)C[C@@H](C)[C@]12Oc1c(Cl)c(OC)cc(OC)c1C2=O	g/dL	3.4

====

Each entry below carries its reported gamma-GTP.
species on record: Rattus norvegicus; assay: Open TG-GATES - Regimen: Daily Repeat; format: toxicity, organism-based, Sprague-Dawley; parameters: regimen Daily Repeat, gender Male, age 6 weeks; details: in vivo, po, 100 mg/kg, 72 h, tissue Plasma, route gavage, dose level Low, time 3 day
readout.type: gamma-GTP

compound	readout.type	result
CCOc1ccc(NC(=O)CC(C)O)cc1 (stereo not given)	gamma-GTP	1 IU/L
COC1=CC(=O)C[C@@H](C)[C@]12Oc1c(Cl)c(OC)cc(OC)c1C2=O	gamma-GTP	1.2 IU/L
COc1ccc2[nH]c([S+]([O-])Cc3ncc(C)c(OC)c3C)nc2c1 (stereo not given)	gamma-GTP	1.2 IU/L
CCOC(=O)CCC(=O)O[C@H]1[C@H](O[C@@H]2[C@@H](C)[C@H](O[C@H]3C[C@@](C)(OC)[C@@H](O)[C@H](C)O3)[C@@H](C)C(=O)O[C@H](CC)[C@@](C)(O)[C@H](O)[C@@H](C)C(=O)[C@H](C)C[C@@]2(C)O)O[C@H](C)C[C@@H]1N(C)C [ERYTHROMYCIN ETHYLSUCCINATE]	gamma-GTP	1.2 IU/L
NC(N)=Nc1nc(CSCCC(N)=NS(N)(=O)=O)cs1	gamma-GTP	1.2 IU/L

Source listed as ChEMBL document CHEMBL3885861.
